Where a name gives a salt, the structure may show the parent alone.
quantity kind: melting point

> print(dat)
                                   molecule         result
1  C/C(=N\O)C(C)(C)NCCCNC(C)(C)/C(C)=N/Nc1ccccc1  145 to 146 °C

Task: Name the recorded melting point for CN/N=C(\C)C(C)(C)NCCCNC(C)(C)/C(C)=N/O (as salt: hydrochloride) .
Output: 175 to 177 °C

Task: Please report the recorded melting point for C/C(=N\O)C(C)(C)NCCCNC(C)(C)/C(C)=N/NC(=O)c1ccccc1 (as salt: trifluoroacetate) .
Output: 95 to 96 °C

Task: GET /values?readout=melting point&item= C/C(=N\N)C(C)(C)NCCCNC(C)(C)/C(C)=N/O
Output: 125 to 126 °C

Task: Please give the measured melting point for this molecule: C/C(=N\N)C(C)(C)NCCCNC(C)(C)/C(C)=N/N
Output: 95 to 96 °C

Task: melting point for C/C(=N\O)C(C)(C)NCCNC(C)(C)/C(C)=N/Nc1ccccc1 ?
Output: 95 to 97 °C
